system: HL-60(TB) leukemia; experiment: NCI-60 one-dose screen, 48 h (100 = growth as untreated, 0 = no growth, -100 = all killed); settings: 10 µM unless noted
About 83,000 compounds went through this panel and 20% of them were active in at least one assay; those are over-represented in the sample as a whole.

- compound: "COC(=O)[C@@H](Cc1c[nH]c2ccccc12)NC(=O)CCCCOc1cc(O)c2c(=O)cc(-c3ccccc3)oc2c1"
  growth / %: 84.1
- compound: "CCN(CC)c1ccc(NC2=C(Cl)C(=O)c3nc(C)ccc3C2=O)cc1"
  growth / %: -34.6
- compound: "NS(=O)(=O)c1ccc(-n2cc(CN3CCCCC3)nn2)cc1"
  growth / %: 101
- compound: "CCO/C=N/C1=C(C#N)C(c2ccc(Cl)cc2)c2sc3c(CC)cccc3c2O1 (stereo not given)"
  growth / %: -0.966
- compound: "COc1ccc(C2CC(c3cccc(OCCCCOc4cccc(C5=NN(C(C)=O)C(c6ccc(OC)cc6)C5)c4)c3)=NN2C(C)=O)cc1 (stereo not given)"
  growth / %: 46.2
- compound: "O=C(Nc1ccc(Cl)cc1)Nc1nc2ccc([N+](=O)[O-])cc2s1"
  growth / %: -51
- compound: "NC(=O)c1ncn2c(=O)n(CCF)nnc12"
  growth / %: 29.6
- compound: "N/C(=N\\c1nc2c(Cl)cccc2s1)C(Cl)(Cl)Cl"
  growth / %: 25.5
- compound: "CS(=O)(=O)c1ccc(/C(=N/N=C(N)N)c2ccc(Cl)cc2)cc1"
  growth / %: 80
- compound: "C/C=C/C=C1\\C[C@H]2CO[C@H](O2)C1=O"
  growth / %: 99.8

====

test system: RXF 393 renal; assay: NCI-60 one-dose screen, 48 h (100 = growth as untreated, 0 = no growth, -100 = all killed); details: 10 µM
This is part of a sample that, as a whole, favours compounds with a hit. Of some 83,000 tested, about 20% had one in any assay.
Readings of growth for the listed compounds

- compound: "COC(=O)[C@H]1[C@@H](O)[C@@]2(O)c3c(OC)cc(OC)cc3O[C@@]2(c2ccc(OC)cc2)[C@@H]1c1ccccc1"
  growth, %: -20.3
- compound: "CC1=C[C@H]2O[C@@H]3C[C@@H](O)[C@](C)([C@@]2(C)CC1)[C@@]31CO1"
  growth, %: 15.3
- compound: "COc1cc(OC)c(S(=O)(=O)N(CCCl)CCCl)cc1C(=O)/C=C/c1ccc(Cl)cc1"
  growth, %: 45.3
- compound: "NC1CCc2cc(O)c(O)cc2C1 (stereo unspecified)"
  growth, %: 81.9
- compound: "CC1=C2C(=C[C@@](C)(COS(C)(=O)=O)[C@@H]2O)C(=O)[C@](C)(O)C12CC2"
  growth, %: -78.1
- compound: "CC1=C[C@H]2O[C@@H]3C[C@H]4OC(=O)/C=C\\C=C\\[C@H]([C@@H](C)O)OCC/C(C)=C/C(=O)OC[C@@]2(CC1)[C@]4(C)[C@]31CO1"
  growth, %: -70.5
- compound: "CC1=C[C@H]2O[C@@H]3C[C@H]4OC(=O)/C=C\\C=C\\[C@H]([C@@H](C)O)OCC[C@@H](C)[C@H](O)C(=O)OC[C@@]2(CC1)[C@]4(C)[C@]31CO1"
  growth, %: -73.7
- compound: "CC1=C2C(=C[C@@](C)(C=O)[C@@H]2O)C(=O)[C@](C)(O)C12CC2"
  growth, %: -77
- compound: "COc1cc2c(O[C@@H]3OC[C@H](OC(C)=O)[C@H](OC(C)=O)[C@H]3O)c3c(c(-c4ccc5c(c4)OCO5)c2cc1OC)C(=O)OC3"
  growth, %: 54.4
- compound: "COc1cc2c(O[C@@H]3OC[C@H](O)[C@H](O)[C@H]3O)c3c(c(-c4ccc5c(c4)OCO5)c2cc1OC)C(=O)OC3"
  growth, %: 53.6
- compound: "Cc1ccc(CNc2nc3ccc(OC/C(=C/F)CN)cc3o2)cn1"
  growth, %: 69.1
- compound: "CC1=C(CN(O)C(N)=O)C2=C(C)C3(CC3)[C@](C)(O)C(=O)C2=C1"
  growth, %: -85.3
- compound: "CCC(C)[C@H]1C(=O)O[C@H](C(C)C)C(=O)N(C)[C@@H](C(C)C)C(=O)O[C@H](C(C)C)C(=O)N(C)[C@@H](C(C)C)C(=O)O[C@H](C(C)C)C(=O)N1C (stereo partly specified)"
  growth, %: 22
- compound: "C=C1[C@@H](C)C2[C@H](Cc3ccccc3)NC(=O)[C@]23[C@H](OC(C)=O)/C=C/[C@@](C)(O)C(=O)[C@@H](C)C/C=C/[C@H]3[C@@H]1O (stereo partly specified)"
  growth, %: -1.19
- compound: "CC(=O)O[C@@H]1[C@@H]2O[C@H]2[C@@](C)(O)C(=O)[C@@H](C)C/C=C/[C@H]2[C@@H]3O[C@]3(C)[C@@H](C)C3[C@H](Cc4ccccc4)NC(=O)[C@@]312 (stereo partly specified)"
  growth, %: 20.3
- compound: "N#Cc1c(-n2c(Br)c(Br)c3cc(Br)ccc32)[nH]c2c(Br)cc(Br)cc12"
  growth, %: -31.7
- compound: "C[C@@H]1C[C@H]2C(=O)O[C@@H](C)C(NC(=O)[C@H](Cc3cc(F)cc(F)c3)NC(=O)Nc3ccc(OS(=O)(=O)F)cc3)C(=O)N3CCC[C@H]3C(=O)N3CCO[C@H](C)[C@H]3C(=O)N[C@@H](CO)C(=O)N2C1 (stereo partly specified)"
  growth, %: -5.55
- compound: "N#Cc1nc(-c2ccccc2)oc1N1CCC(S(=O)(=O)F)CC1"
  growth, %: 92.3
- compound: "COc1cc2c(cc1OC)[C@@H]1N(CC2)C(=O)c2ccccc2[C@@]1(C)C(=O)O"
  growth, %: 127
- compound: "CC1=C2C(=O)[C@](C)(CO)C=C2C(=O)[C@](C)(O)C12CC2"
  growth, %: -82.9
- compound: "CC(=O)O[C@@H]1C[C@H]2O[C@@H]3C=C(C)CC[C@]3(C)[C@]1(C)[C@]21CO1"
  growth, %: 4.11
